Data provenance is PubChem BioAssay (EPA / NIEHS).

target: human CYP2C9, CYP2C9 (gene 1559) (UniProt P11712); assay: NVS_ADME_hCYP2C9: NovaScreen (NVS) CYP450-related Enzyme Activity (ADME) Assay for human CYP2C9 (AID 2283108)
Sequence (P11712 whole entry, looked up): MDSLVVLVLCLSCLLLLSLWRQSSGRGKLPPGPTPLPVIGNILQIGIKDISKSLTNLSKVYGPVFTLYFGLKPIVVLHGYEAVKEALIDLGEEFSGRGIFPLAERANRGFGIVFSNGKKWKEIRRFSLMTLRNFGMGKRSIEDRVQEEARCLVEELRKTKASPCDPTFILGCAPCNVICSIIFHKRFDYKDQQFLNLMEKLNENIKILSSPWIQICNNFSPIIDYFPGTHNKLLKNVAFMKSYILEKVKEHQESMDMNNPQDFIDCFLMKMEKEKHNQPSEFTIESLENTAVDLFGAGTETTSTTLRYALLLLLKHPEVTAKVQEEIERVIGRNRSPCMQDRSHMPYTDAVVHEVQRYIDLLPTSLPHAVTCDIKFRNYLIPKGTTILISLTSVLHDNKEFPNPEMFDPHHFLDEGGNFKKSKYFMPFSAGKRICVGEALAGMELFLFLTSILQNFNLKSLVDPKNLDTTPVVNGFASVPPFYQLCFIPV
Records with an inconclusive call do not appear. The source made the active and inactive calls. The calls were made as follows: active = hit-call score of the fitted dose curve at least 0.9, where 1 is the maximum; inconclusive = response in the unintended direction; inactive = score below 0.9.
In this exercise, the only acceptable responses are 1 (active), -1 (inactive)

Check out these entries, answers already filled in.
C#CCC1=C(C)C(OC(=O)C2C(C=C(C)C)C2(C)C)CC1=O (centres undefined) : 1
CCC(=NOC/C=C/Cl)C1=C(O)CC(C2CCOCC2)CC1=O (centres undefined) : -1
S=C1NCCN1 : -1
CCOC(=O)CC(SP(=O)(OC)OC)C(=O)OCC (centres undefined) : 1
CCOP(=S)(OCC)Oc1ccc([N+](=O)[O-])cc1 : 1

Q: What is the recorded call for this compound in the test? CCCSP(=O)(OCC)Oc1ccc(Br)cc1Cl (centres undefined)
Ans: 1

Q: What is the recorded call for this compound in the test? Cc1cc(C2CC2)nc(Nc2ccccc2)n1
Ans: 1

Q: What is the recorded call for this compound in the test? CC1(C(=O)Nc2ccc(O)c(Cl)c2Cl)CCCCC1
Ans: 1

Q: What is the recorded call for this compound in the test? O=[N+]([O-])c1cc(C(F)(F)F)c(Cl)c([N+](=O)[O-])c1Nc1ncc(C(F)(F)F)cc1Cl
Ans: 1

---

read-out: TIMP1, TIMP1 (gene 7076); experiment: LTEA_HepaRG_TIMP1: Life Technologies and Expression Analysis (LTEA) Assay for TIMP1 using HepaRG (AID 2283534); settings: mRNA level, 48 h; actives raise or lower the signal
Active and inactive are the calls of the source. The calls were made as follows: active = hit-call score of the fitted dose curve at least 0.9, where 1 is the maximum; inactive = score below 0.9.
In this exercise, the only acceptable responses are active, inactive

Check out these entries, answers already filled in.
O=C(O)c1cc(Oc2ccc(C(F)(F)F)cc2Cl)ccc1[N+](=O)[O-] : inactive
CCCCSP(=O)(SCCCC)SCCCC : inactive
CCCOCC(=Nc1ccc(Cl)cc1C(F)(F)F)n1ccnc1 : active
CCOP(=O)(OCC)Oc1cc(C)nc(C(C)C)n1 : inactive
CCc1cnc(C2=NC(C)(C(C)C)C(=O)N2)c(C(=O)O)c1 (stereo not given) : inactive

Q: What is the recorded call for this molecule in the test? C[N+]1(C)CCCCC1
Ans: inactive

Q: What is the recorded call for this molecule in the test? CCCCN(CC)c1c([N+](=O)[O-])cc(C(F)(F)F)cc1[N+](=O)[O-]
Ans: inactive

Q: What is the recorded call for this molecule in the test? COP(=O)(OC)SCn1c(=O)oc2cc(Cl)cnc21
Ans: inactive

Q: What is the recorded call for this molecule in the test? CNC(=O)ON=C(SC)C(=O)N(C)C
Ans: inactive

---

read-out: Monocyte Chemoattractant Protein-1 (MCP1), CCL2 (gene 6347); experiment: BSK_3C_MCP1: BioMAP Diversity Plus: 3C Assay for Monocyte Chemoattractant Protein-1 (MCP1) Biomarker Activity (AID 2283017); conditions: primary human endothelial cells (HUVEC); actives raise or lower the signal
Calls of active or inactive are those of the source. The calls were made as follows: active = hit-call score of the fitted dose curve at least 0.9, where 1 is the maximum; inactive = score below 0.9.
In this exercise, the only acceptable responses are 1.0 (active), 0.0 (inactive)

Check out these entries, answers already filled in.
CCC(=O)Nc1ccc(Cl)c(Cl)c1 : 0.0
CCCCSP(=O)(SCCCC)SCCCC : 1.0
CN1COCN(Cc2cnc(Cl)s2)C1=N[N+](=O)[O-] : 0.0
CCOP(=S)(Oc1cnc(C(C)(C)C)nc1)OC(C)C (centres undefined) : 1.0

Moving on to the next compound.
Q: What is the recorded call for this compound in the test? CCCOCC(=Nc1ccc(Cl)cc1C(F)(F)F)n1ccnc1
Ans: 1.0
